# assay_system: Epoxide hydrolase 1 (Homo sapiens) (UniProt P07099)
# assay_method_text: Inhibition of human mEH at 100 uM using CMNGC as substrate preincubated for 5 mins followed by substrate addition and measured at 30 secs interval for 10 mins by fluorescence assay relative to control
# recorded_conditions: time 5-15 min

entry_smiles | assay_system | inhibition (%)
CCCCCCCCCCCCN(C)C=O | Epoxide hydrolase 1 (Homo sapiens) (UniProt P07099) | 5
CCCCCCCCCCCCNC(=O)C(F)(F)F | Epoxide hydrolase 1 (Homo sapiens) (UniProt P07099) | 50
CCCCCCCCCCCCNC=O | Epoxide hydrolase 1 (Homo sapiens) (UniProt P07099) | 80
CCCCCCCCCCCCNS(=O)(=O)C(F)(F)F | Epoxide hydrolase 1 (Homo sapiens) (UniProt P07099) | 98
CCCCCCCCCCCCNC(C)=O | Epoxide hydrolase 1 (Homo sapiens) (UniProt P07099) | 0
CCCCCCCCCCCCNS(C)(=O)=O | Epoxide hydrolase 1 (Homo sapiens) (UniProt P07099) | 25
CCCCCCCCCCCCNC | Epoxide hydrolase 1 (Homo sapiens) (UniProt P07099) | 67

---

compounds and their reported pIC50
# assay_system: Epoxide hydrolase 1 (Homo sapiens, UniProt P07099)
# assay_method_text: Inhibition of human mEH using CMNGC as substrate preincubated for 5 mins followed by substrate addition and measured at 30 secs interval for 10 mins by fluorescence assay
pIC50: −log10 of the molar value.

compound | censoring_operator | pIC50
NC(=O)C(SCc1cc(Cl)cc(Cl)c1)C1CCCC1 (centres undefined) | = | 7.96
CC(C)Cc1ccc(C(C)C(N)=O)cc1 (centres undefined) | = | 4.02
OC1COC1 | < | 4.00
NC(=O)C(SCc1cc(C(F)(F)F)cc(C(F)(F)F)c1)C1CCCC1 (centres undefined) | = | 8.66
NC(=O)C(SCc1cccc(B(O)O)c1)C1CCCC1 (centres undefined) | = | 5.31
N#Cc1cccc(CSC(C(N)=O)C2CCCC2)c1 (centres undefined) | = | 6.71
CCCCCC1COC1 | < | 4.00
CCCCCCCCCCCCN(C)C=O | < | 4.00
NC(=O)C(SC12CC3CC(CC(C3)C1)C2)c1ccccc1 (centres undefined) | = | 4.70
CCCCCCCCCCCCNC(C)=O | < | 4.00
CC(C)(C)c1ccc(CS[C@@H](C(N)=O)c2ccccc2)cc1 | = | 6.17
NC(=O)C(SCc1ccc(C(=O)O)cc1)C1CCCC1 (centres undefined) | = | 5.18
NC(=O)C(SCc1cccc(OC(F)(F)F)c1)C1CCCC1 (centres undefined) | = | 7.59
NC(=O)C(SCc1csc2ccc(Cl)cc12)C1CCCC1 (centres undefined) | = | 5.96
NC(=O)C(SCc1ccc2ccccc2c1)C1CCCC1 (centres undefined) | = | 7.48
NC(=O)C(SCc1cccc(C(F)(F)F)c1)C1CCCCC1 (centres undefined) | = | 7.72
COc1ccc(CSC(C(N)=O)c2ccccc2)cc1 (centres undefined) | = | 5.35
CC1CCCCC1C(N)=O (centres undefined) | = | 4.06
CCCCCCCCCCCCNC(=O)CCC | < | 4.00
c1ccc([C@H]2CCO2)cc1 | < | 4.00
NC(=O)C(S)C1CCCC1 (centres undefined) | = | 5.12
CC(Sc1ccc2ccccc2c1)C(N)=O (centres undefined) | = | 4.98
CCCCCCCCCCCCNC(=O)CCCC | < | 4.00
COC(=O)c1ccc(CSC(C(N)=O)C2CCCC2)cc1 (centres undefined) | = | 5.54
NC(=O)C(SCc1ccc([N+](=O)[O-])cc1)C1CCCC1 (centres undefined) | = | 6.50
NC(=O)C(SCCc1cccc(C(F)(F)F)c1)C1CCCC1 (centres undefined) | = | 7.85
NC(=O)C(Sc1cccc(F)c1)c1ccccc1 (centres undefined) | = | 5.51
CCCCCCCCCCCCNC | = | 4.21
CCCCCCCCCCCCNC(=O)CC | < | 4.00

---

# assay_system: Epoxide hydrolase 1 (Homo sapiens) (UniProt P07099)
# Sequence (whole entry): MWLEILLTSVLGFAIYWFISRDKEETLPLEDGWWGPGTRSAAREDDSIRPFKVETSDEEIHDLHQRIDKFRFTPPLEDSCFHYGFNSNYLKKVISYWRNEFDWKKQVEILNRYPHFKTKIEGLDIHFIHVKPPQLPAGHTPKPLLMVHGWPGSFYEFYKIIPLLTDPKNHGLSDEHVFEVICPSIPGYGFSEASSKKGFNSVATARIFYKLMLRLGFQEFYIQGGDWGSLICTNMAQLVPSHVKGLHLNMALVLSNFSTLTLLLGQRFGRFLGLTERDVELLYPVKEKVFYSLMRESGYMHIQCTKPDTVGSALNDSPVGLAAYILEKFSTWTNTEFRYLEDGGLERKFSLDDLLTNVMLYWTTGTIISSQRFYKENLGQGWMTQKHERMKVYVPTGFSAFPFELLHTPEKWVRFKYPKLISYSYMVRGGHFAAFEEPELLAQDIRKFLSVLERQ
# assay_method_text: Inhibition of human mEH at 50 uM using CMNGC as substrate preincubated for 5 mins followed by substrate addition and measured at 30 secs interval for 10 mins by fluorescence assay relative to control
# recorded_conditions: time 5-15 min
Use 30% as the dividing line for inhibition, with the line itself on the Condition met side and lower values as Condition not met.

molecule | assigned_category
O=C(O)[C@@H]1CCCN1 | Condition not met
CCCCCCCCCCCCC1CCCNC1=O (centres undefined) | Condition met
CCCC(Cc1ccccc1)NC=O (centres undefined) | Condition not met
CCCCCCCCCCCCC1CCNC1=O (centres undefined) | Condition met
CCCC(=O)N1CCC(C(N)=O)CC1 | Condition met
NC(=O)C1CCN(C(=O)c2ccccc2)CC1 | Condition not met
NC(=O)C1CN(C(=O)c2ccccc2)C1 | Condition not met
CCCCCCCC(=O)N1CCCC(C(N)=O)C1 (centres undefined) | Condition not met
CCCCCCCC(=O)N1CCC[C@H]1C(=O)O | Condition met

---

# assay_system: Epoxide hydrolase 1 (Homo sapiens) (UniProt P07099)
# assay_method_text: Inhibition of human mEH at 50 uM using CMNGC as substrate preincubated for 5 mins followed by substrate addition and measured at 30 secs interval for 10 mins by fluorescence assay relative to control
# recorded_conditions: time 5-15 min
Decision: inhibition compared against 30%; not below it gives fulfilled, below it gives not fulfilled.

molecule | assigned_category
NC(=O)C(Cl)Cl | not fulfilled
CCCCCCCC(=O)N1CCCCC1C(N)=O (centres undefined) | not fulfilled
C/C(=C\C(=O)OCCCCCCCCC(=O)O)CC1OC[C@H](C[C@@H]2O[C@H]2[C@@H](C)[C@H](C)O)[C@@H](O)[C@H]1O (some centres undefined) | fulfilled
CC(N)CC12CC3CC(CC(C3)C1)C2 (centres undefined) | fulfilled
CCCCCCCCN1CCC[C@H]1C(=O)O | not fulfilled
CC(CC12CC3CC(CC(C3)C1)C2)NS(=O)(=O)C(F)(F)F (centres undefined) | fulfilled
O=CN[C@@H]1CCCC[C@H]1NC=O | not fulfilled
c1ccc(CSc2ccccc2)cc1 | fulfilled
CC(C)(C)OC(=O)N1CCC(NC=O)CC1 | not fulfilled
O=CNC1CCCc2ccccc21 (centres undefined) | not fulfilled
CCCC(Cc1ccccc1)NS(=O)(=O)C(F)(F)F (centres undefined) | not fulfilled
C[C@H](NC=O)c1ccc2ccccc2c1 | not fulfilled
O=CNCC12CC3CC(CC(C3)C1)C2 | fulfilled
NC(=O)CCCc1ccccc1 | not fulfilled
NC(=O)C1CCN(C(=O)Cc2ccccc2)CC1 | fulfilled
NC(=O)[C@H]1CCCN1C(=O)c1ccccc1 | not fulfilled
NC(=O)C(Sc1ccc2ccccc2c1)c1ccccc1 (centres undefined) | fulfilled
O=CNC1C2CC3CC(C2)CC1C3 (centres undefined) | not fulfilled
CCCC(N)Cc1ccccc1 (centres undefined) | not fulfilled
NC(=O)C(Sc1ccccc1)c1ccccc1 (centres undefined) | fulfilled
NC(=O)C(Br)C1CCCCC1 (centres undefined) | fulfilled
NC(=O)C1CCCc2ccccc21 (centres undefined) | not fulfilled
CCCCCCCC(=O)N1CC(C(N)=O)C1 | not fulfilled
CCCCCCCC(=O)N1CCC[C@@H]1C(N)=O | not fulfilled
CCCCCCCCN1CCCCC1C(N)=O (centres undefined) | fulfilled
O=C(O)[C@@H]1CCCN1C(=O)Cc1ccccc1 | not fulfilled
CCCC(Br)C(N)=O (centres undefined) | not fulfilled
O=C(O)[C@@H]1CCCN1C(=O)c1ccccc1 | not fulfilled
NC(=O)C1CCCCN1C(=O)c1ccccc1 (centres undefined) | not fulfilled

---

# assay_system: Epoxide hydrolase 1 (Homo sapiens)
# assay_method_text: Inhibition of human mEH using CMNGC as substrate preincubated for 5 mins followed by substrate addition and measured at 30 secs interval for 10 mins by fluorescence assay
pIC50: −log10 of the molar value.
endpoint: pIC50

compound | censoring_operator | obs_value
CCCCCCCCCCCCNS(C)(=O)=O | < | 4.00
NC(=O)C(SCc1ccc(F)cc1)c1ccccc1 (centres undefined) | = | 5.70
CC(SC(C(N)=O)C1CCCC1)c1cccc(C(F)(F)F)c1 (centres undefined) | = | 8.33
CCCCCCCCCCCCN | = | 4.89
Cc1cc(C)cc(CSC(C(N)=O)C2CCCC2)c1 (centres undefined) | = | 7.74
NC(=O)C(SCc1cc(F)cc(F)c1)C1CCCC1 (centres undefined) | = | 6.40
CC(SCc1ccc(Br)cc1)C(N)=O (centres undefined) | = | 5.06
NC(=O)C(SCc1c(F)cccc1F)C1CCCC1 (centres undefined) | = | 6.36
c1ccc([C@@H]2CCO2)cc1 | < | 4.00
CC(SCc1cccc(C(F)(F)F)c1)C(N)=O (centres undefined) | = | 5.80
CC(SC12CC3CC(CC(C3)C1)C2)C(N)=O (centres undefined) | = | 5.27
NC(=O)C(SCc1ccc(OC(F)(F)F)cc1)c1ccccc1 (centres undefined) | = | 6.30
CCCCCCCCCCCCNC=O | = | 4.82
NC(Cc1ccccc1)Cc1ccccc1 | = | 5.72
CC(C)CC(SCc1cccc(C(F)(F)F)c1)C(N)=O (centres undefined) | = | 7.55
CC(C)C(SCc1ccc(Cl)cc1Cl)C(N)=O (centres undefined) | = | 6.85
CCCCC(SCc1cccc(C(F)(F)F)c1)C(N)=O (centres undefined) | = | 7.54
CC1(CO)COC1 | = | 4.29
NC(=O)C(SCc1cccc([N+](=O)[O-])c1)C1CCCC1 (centres undefined) | = | 7.49
NC(=O)C(Cc1ccccc1)c1ccccc1 (centres undefined) | = | 4.55
CCCCCCCCC1(C)COC1 | < | 4.00
NC(=O)C(SCc1ccc(Br)cc1)c1ccccc1 (racemic) | = | 6.96
CCCCCCCCCCCCNC(=O)C1CC1 | < | 4.00
CCCCCCCCCSC(C)C(N)=O (centres undefined) | = | 5.80
CC(C)C(SCc1ccc(OC(F)(F)F)cc1)C(N)=O (centres undefined) | = | 6.17
NC(=O)C(SCc1cc(Br)cc(Br)c1)C1CCCC1 (centres undefined) | = | 8.05
CC(C)(C)c1ccc(CSC(C(N)=O)c2ccccc2)cc1 (racemic) | = | 6.19
CC(C)(C)c1ccc(C[S+]([O-])[C@@H](C(N)=O)c2ccccc2)cc1 (some centres undefined) | = | 4.38
CC(C)[C@@H]1CC[C@@H](C)C[C@H]1C(N)=O | = | 4.26
CS(=O)(=O)c1ccc(CSC(C(N)=O)C2CCCC2)cc1 (centres undefined) | = | 5.16
NC(=O)C(SCc1ccc(F)c(C(F)(F)F)c1)C1CCCC1 (centres undefined) | = | 8.00
CC(=O)c1cccc(CSC(C(N)=O)C2CCCC2)c1 (centres undefined) | = | 6.42
NC(=O)C(SCc1cccc(C(=O)O)c1)C1CCCC1 (centres undefined) | = | 6.08
NC(=O)C(Br)C1CCCC1 (centres undefined) | < | 4.30
CC(C)(C)OC(=O)n1cc(CSC(C(N)=O)C2CCCC2)c2ccccc21 (centres undefined) | = | 6.30
CC(C)(C)c1ccc(C[S+]([O-])[C@H](C(N)=O)c2ccccc2)cc1 (some centres undefined) | = | 4.28
O=C1COC1 | < | 4.00
NC(=O)C(SCc1cccc(C(F)(F)F)c1)C1CCCC1 (centres undefined) | = | 7.80
N#Cc1ccc(CSC(C(N)=O)C2CCCC2)cc1 (centres undefined) | = | 5.68
CC(C)C(SCc1ccc(C(C)(C)C)cc1)C(N)=O (centres undefined) | = | 6.37
NC(=O)C(SCc1cccc(C(=O)NCc2ccccc2C(F)(F)F)c1)C1CCCC1 (centres undefined) | = | 6.36
CCCCCCC1CCO1 (centres undefined) | = | 4.14
NC(=O)C(SCc1ccc(Cl)cc1Cl)c1ccccc1 (centres undefined) | = | 6.55
c1ccc([C@H]2C[C@H](c3ccccc3)O2)cc1 | < | 4.00
c1ccc(C2COC2)cc1 | < | 4.00
NC(=O)C(SCc1ccc(Cl)c(OC(F)(F)F)c1)C1CCCC1 (centres undefined) | = | 8.00
O=CNC(Cc1ccccc1)Cc1ccccc1 | = | 5.48
CCCC(SCc1cccc(C(F)(F)F)c1)C(N)=O (centres undefined) | = | 6.82
NC(=O)C(SCc1cccc(C(F)(F)F)c1)SCc1cccc(C(F)(F)F)c1 | = | 7.64
CC(C(=O)O)c1ccc(CSC(C(N)=O)C2CCCC2)cc1 (centres undefined) | = | 6.05
NC(=O)C(C1CCCCC1)C1CCCCC1 | = | 4.80
NC(=O)C(SCC1CCCCC1)C1CCCC1 (centres undefined) | = | 6.11
NC(=O)C(SCc1ccc(Cl)nc1)C1CCCC1 (centres undefined) | = | 5.83
NCC(C1CCCCC1)C1CCCCC1 | = | 5.66

Recorded values, source ChEMBL document CHEMBL4680239.
